TARGET DESC: aspartyl proteases, in particular, beta-secretase
EXPERIMENT DESCRIPTION: Ki of the compounds listed in Tables 1 and 2 (no method described)
Format: biochemical
TEST SETTINGS: Table 1, compounds of formula Ia, W is -(CH2)n-
For each entry below, report its log10 of Ki value.
Heads up, the numbers here are log10 of Ki in nM units.

Reference set (4 entries):
O=C(N[C@@H](CCCCNS(=O)(=O)c1ccc(Br)cc1)C(=O)O)C(c1ccccc1)c1ccccc1: 4.38
Nc1ccc(S(=O)(=O)NCCCC[C@H](NC(=O)OCC2c3ccccc3-c3ccccc32)C(=O)O)cc1: 3.83
O=C(NCCCC[C@H](NS(=O)(=O)c1ccc(Br)cc1)C(=O)O)OCC1c2ccccc2-c2ccccc21: 3.28
O=C(NCCCC[C@H](NS(=O)(=O)c1ccc([N+](=O)[O-])cc1)C(=O)O)OCC1c2ccccc2-c2ccccc21: 3.52

# return log10 of Ki for each item in the list
1. O=C(O)[C@H](CCCNS(=O)(=O)c1ccc(Br)cc1)NS(=O)(=O)c1ccc(Br)cc1
2. COc1cccc(CCC(=O)NCCCC[C@@H](C(=O)O)N(CC(C)C)S(=O)(=O)c2ccc(N)cc2)c1OC

A.
1. 4.63
2. 0.79

# return log10 of Ki for each item in the list
1. Cc1ccc(S(=O)(=O)N(CC(C)C)C(CCCCNC(=O)C=Cc2ccccc2)C(=O)O)cc1 (stereo not drawn)
2. O=C(N[C@@H](CCCCNS(=O)(=O)c1ccc(F)cc1)C(=O)O)OCC1c2ccccc2-c2ccccc21

A.
1. 2.87
2. 3.81

---

TARGET DESC: aspartyl proteases, in particular, beta-secretase
EXPERIMENT DESCRIPTION: Ki of the compounds listed in Tables 1 and 2 (no method described)
Type: biochemical
TEST SETTINGS: Table 1, compounds of formula Ia, W is -(CH2)n-
QUANTITY KIND: pKi
Answers are plain numbers, as −log10 of the molar value.

Reference set (3 entries):
Cc1ccc(S(=O)(=O)N(Cc2ccccc2)[C@@H](CCCCNC(=O)OCC2c3ccccc3-c3ccccc32)C(=O)O)cc1 [Compound No. 40]: 7.71
O=C(N[C@@H](CCCCNS(=O)(=O)c1ccc(Cl)cc1)C(=O)O)OCC1c2ccccc2-c2ccccc21 [Compound No. 53]: 5.32
CC(C)CN([C@@H](CCCCNC(=O)OCC1c2ccccc2-c2ccccc21)C(=O)O)S(=O)(=O)c1ccc(N)cc1 [Compound No. 44]: 8.68

Could you now consider this next molecule?
Q. Short answer please: pKi, aspartyl proteases, in particular, beta-secretase, entry Cc1ccc(S(=O)(=O)N(CC(C)C)[C@@H](CCCCNC(=O)C(c2ccccc2)c2ccccc2)C(=O)O)cc1 [compound 86]
A. 6.77

---

TARGET DESC: aspartyl proteases, in particular, beta-secretase
EXPERIMENT DESCRIPTION: Ki of the compounds listed in Tables 1 and 2 (no method described)
Format: biochemical
TEST SETTINGS: Table 1, compounds of formula Ia, W is -(CH2)n-
QUANTITY KIND: Ki

Reference set (4 entries):
CC(C)CN(C(CCCCNC(=O)OCc1ccccc1)C(=O)O)S(=O)(=O)c1ccc(I)cc1 (racemic): > 0.1 µM
Cc1cc(C)c(S(=O)(=O)N(CC(C)C)[C@@H](CCCCNC(=O)OCC2c3ccccc3-c3ccccc32)C(=O)O)c(C)c1: > 0.1 µM
CC(C)CN([C@@H](CCCCNC(=O)C=Cc1ccc2c(c1)OCO2)C(=O)O)S(=O)(=O)c1ccc([N+](=O)[O-])cc1: > 0.3 µM
O=C(N[C@@H](CCCCNS(=O)(=O)c1ccccc1)C(=O)O)OCC1c2ccccc2-c2ccccc21: 8.9 µM

# return Ki for each item in the list
1. NC(=O)C(CCCCNS(=O)(=O)c1ccc(Br)cc1)NC(=O)OCC1c2ccccc2-c2ccccc21 (stereo not shown)
2. O=C(N[C@@H](CCCCNS(=O)(=O)c1ccc([N+](=O)[O-])cc1)C(=O)O)OCC1c2ccccc2-c2ccccc21
3. O=C(NCCCC[C@H](NS(=O)(=O)c1ccccc1[N+](=O)[O-])C(=O)O)OCC1c2ccccc2-c2ccccc21 [Compound No. 70]

A.
23 µM
6 µM
> 12.5 µM

The reported numbers originate from patent US20060079550A1.
